- System: S. pullorum C7913
- Assay type: cell-based
Non-standard residues stand in square brackets, D forms with d. Residues, ends and D or L forms follow the SMILES beside them. *: point of attachment. Palmitoyl = CCCCCCCCCCCCCCCC(=O)*; Myristoyl = CCCCCCCCCCCCCC(=O)*; Decanoyl = CCCCCCCCCC(=O)*
experimental readout: MIC, S. pullorum C7913 (µM)

{"compound": "CCCCCCCCCCCCCCCC(=O)N[C@H](CCCNC(=N)N)C(=O)N[C@@H](CCCNC(=N)N)C(=O)N[C@@H](CCCNC(=N)N)C(=O)N1CCC[C@H]1C(=O)O [Peptide C16] (Palmitoyl-[dR]RRP-OH)", "experimental readout": "MIC, S. pullorum C7913", "measurement": 256}

(A) CCCCCCCCCC(=O)N[C@H](CCCNC(=N)N)C(=O)N[C@@H](CCCNC(=N)N)C(=O)N[C@@H](CCCNC(=N)N)C(=O)N1CCC[C@H]1C(=O)O [Peptide C10] (Decanoyl-[dR]RRP-OH)
(B) CCCCCCCCCCCCCC(=O)N[C@H](CCCNC(=N)N)C(=O)N[C@@H](CCCNC(=N)N)C(=O)N[C@@H](CCCNC(=N)N)C(=O)N1CCC[C@H]1C(=O)O [Peptide C14] (Myristoyl-[dR]RRP-OH)
Ask: Would you let me know which has the greater MIC, S. pullorum C7913 value, A or B ? Use the label to indicate which entry you chose.
Result: A
(A: 256 µM, B: 64 µM)

* * *

- Tested on: S. pullorum C7913
- Assay type: cell-based
Non-standard residues stand in square brackets, D forms with d. Residues, ends and D or L forms follow the SMILES beside them. *: point of attachment. 1Naphthoyl = O=C(c1cccc2ccccc12)*; Lauroyl = CCCCCCCCCCCC(=O)*
experimental readout: MIC, S. pullorum C7913 (µM)

(I) CCCCCCCCCCCC(=O)N[C@H](CCCNC(=N)N)C(=O)N[C@@H](CCCNC(=N)N)C(=O)N[C@@H](CCCNC(=N)N)C(=O)N1CCC[C@H]1C(=O)O [Peptide C12] (Lauroyl-[dR]RRP-OH)
(II) N=C(N)NCCC[C@H](NC(=O)c1cccc2ccccc12)C(=O)N[C@H](CCCNC(=N)N)C(=O)N[C@@H](CCCNC(=N)N)C(=O)N1CCC[C@H]1C(=O)O [Nap] (1Naphthoyl-R[dR]RP-OH)
Ask: Field: lower recorded MIC, S. pullorum C7913 (choose I or II ) Your choice should be expressed through its label.
Result: I

* * *

- Test system: S. epidermidis 12228
- Type: cell-based, Staphylococcus epidermidis
Non-standard residues stand in square brackets, D forms with d. Residues, ends and D or L forms follow the SMILES beside them. *: point of attachment. 2Nal = N[C@@H](Cc1ccc2ccccc2c1)C(=O)O; Palmitoyl = CCCCCCCCCCCCCCCC(=O)*; Myristoyl = CCCCCCCCCCCCCC(=O)*; Lauroyl = CCCCCCCCCCCC(=O)*; Decanoyl = CCCCCCCCCC(=O)*
experimental readout: MIC, S. epidermidis 12228 (µM)

{"molecule": "C[C@H](N)C(=O)N[C@@H](C)C(=O)N[C@@H](C)C(=O)N[C@@H](C)C(=O)N[C@@H](C)C(=O)N[C@@H](C)C(=O)N[C@H](CCCNC(=N)N)C(=O)N[C@@H](CCCNC(=N)N)C(=O)N[C@@H](CCCNC(=N)N)C(=O)N1CCC[C@H]1C(=O)O [Peptide A6] (H-AAAAAA[dR]RRP-OH)", "unit abbrev": "µM", "measurement": 256}
{"molecule": "N=C(N)NCCC[C@H](NC(=O)[C@H](Cc1ccc2ccccc2c1)NC(=O)[C@H](Cc1ccc2ccccc2c1)NC(=O)[C@@H](N)Cc1ccc2ccccc2c1)C(=O)N[C@H](CCCNC(=N)N)C(=O)N[C@@H](CCCNC(=N)N)C(=O)N1CCC[C@H]1C(=O)O [Peptide N3] (H-[2Nal][2Nal][2Nal]R[dR]RP-OH)", "unit abbrev": "µM", "measurement": 16}
{"molecule": "CCCCCCCCCCCCCC(=O)N[C@H](CCCNC(=N)N)C(=O)N[C@@H](CCCNC(=N)N)C(=O)N[C@@H](CCCNC(=N)N)C(=O)N1CCC[C@H]1C(=O)O [Peptide C14] (Myristoyl-[dR]RRP-OH)", "unit abbrev": "µM", "measurement": 32}

(A) C[C@H](N)C(=O)N[C@@H](C)C(=O)N[C@@H](C)C(=O)N[C@@H](C)C(=O)N[C@@H](C)C(=O)N[C@H](CCCNC(=N)N)C(=O)N[C@@H](CCCNC(=N)N)C(=O)N[C@@H](CCCNC(=N)N)C(=O)N1CCC[C@H]1C(=O)O [Peptide A5] (H-AAAAA[dR]RRP-OH)
(B) CCCCCCCCCC(=O)N[C@H](CCCNC(=N)N)C(=O)N[C@@H](CCCNC(=N)N)C(=O)N[C@@H](CCCNC(=N)N)C(=O)N1CCC[C@H]1C(=O)O [Peptide C10] (Decanoyl-[dR]RRP-OH)
(C) CCCCCCCCCCCCCCCC(=O)N[C@H](CCCNC(=N)N)C(=O)N[C@@H](CCCNC(=N)N)C(=O)N[C@@H](CCCNC(=N)N)C(=O)N1CCC[C@H]1C(=O)O [Peptide C16] (Palmitoyl-[dR]RRP-OH)
(D) CCCCCCCCCCCC(=O)N[C@H](CCCNC(=N)N)C(=O)N[C@@H](CCCNC(=N)N)C(=O)N[C@@H](CCCNC(=N)N)C(=O)N1CCC[C@H]1C(=O)O [Peptide C12] (Lauroyl-[dR]RRP-OH)
Ask: Ordering criterion: MIC, S. epidermidis 12228; begin with the maximum. Please reply with the labels ordered as requested. Many thanks.
Result: A, B, D, C

* * *

- Test system: A. baumannii AB1901
- procedure details: MIC against clinical strain
- Format: cell-based
- cond: Acinetobacter baumannii, AB1901, read-out: MIC, A. baumannii AB1901
experimental readout: MIC (µM)
# output: bare number, implied unit µM

{"compound": "NC[C@H]1O[C@H](O[C@H]2[C@H](O)[C@@H](O[C@H]3O[C@H](CO)[C@@H](O)[C@H](N)[C@H]3O)[C@H](N)C[C@@H]2N)[C@H](O)[C@@H](O)[C@@H]1O [Kanamycin]", "measurement": 128}

Turning to the following compound.
Ask: What value of measured MIC is listed for CC1COc2c(N3CCN(C)CC3)c(F)cc3c(=O)c(C(=O)O)cn1c23 (stereo not shown) [Ofloxacin] ?
Result: 1

* * *

- procedure details: in vitro
- cond: female, ICR, mouse, serum
experimental readout: remaining at 12 h (%)
Give just the numeric value; % need not be written.

Ask: Recorded remaining at 12 h of N=C(N)NCCC[C@H](NC(=O)[C@@H](CCCNC(=N)N)NC(=O)[C@H](Cc1cccc2ccccc12)NC(=O)[C@H](Cc1cccc2ccccc12)NC(=O)[C@H](Cc1cccc2ccccc12)NC(=O)[C@@H](N)Cc1cccc2ccccc12)C(=O)N[C@@H](CCCNC(=N)N)C(=O)N1CCC[C@H]1C(=O)O (stereo in doubt) [Peptide N4] , please.
Result: 8.1

* * *

- Tested on: S. aureus 25923
- Assay type: cell-based, Staphylococcus aureus
Non-standard residues stand in square brackets, D forms with d. Residues, ends and D or L forms follow the SMILES beside them. *: point of attachment. Palmitoyl = CCCCCCCCCCCCCCCC(=O)*; Myristoyl = CCCCCCCCCCCCCC(=O)*
experimental readout: MIC, S. aureus 25923 (µM)

{"compound": "CCCCCCCCCCCCCCCC(=O)N[C@H](CCCNC(=N)N)C(=O)N[C@@H](CCCNC(=N)N)C(=O)N[C@@H](CCCNC(=N)N)C(=O)N1CCC[C@H]1C(=O)O [Peptide C16] (Palmitoyl-[dR]RRP-OH)", "study system": "S. aureus 25923", "measurement": 32}

(P) C[C@H](N)C(=O)N[C@@H](C)C(=O)N[C@@H](C)C(=O)N[C@H](CCCNC(=N)N)C(=O)N[C@@H](CCCNC(=N)N)C(=O)N[C@@H](CCCNC(=N)N)C(=O)N1CCC[C@H]1C(=O)O [Peptide A3] (H-AAA[dR]RRP-OH)
(Q) CCCCCCCCCCCCCC(=O)N[C@H](CCCNC(=N)N)C(=O)N[C@@H](CCCNC(=N)N)C(=O)N[C@@H](CCCNC(=N)N)C(=O)N1CCC[C@H]1C(=O)O [Peptide C14] (Myristoyl-[dR]RRP-OH)
Ask: Form: Entry with minimum MIC, S. aureus 25923 (choose one): P / Q # answer = label of selected item
Result: Q
(Q: 32 µM, P: 256 µM)

* * *

- System: MRSA 43300
- Assay type: cell-based, Methicillin-Resistant Staphylococcus aureus
Non-standard residues stand in square brackets, D forms with d. Residues, ends and D or L forms follow the SMILES beside them. *: point of attachment. Decanoyl = CCCCCCCCCC(=O)*
experimental readout: MIC, MRSA 43300 (µM)

{"compound": "C[C@H](N)C(=O)N[C@@H](C)C(=O)N[C@@H](C)C(=O)N[C@H](CCCNC(=N)N)C(=O)N[C@@H](CCCNC(=N)N)C(=O)N[C@@H](CCCNC(=N)N)C(=O)N1CCC[C@H]1C(=O)O [Peptide A3] (H-AAA[dR]RRP-OH)", "unit abbrev": "µM", "measurement": 256}

(I) CCCCCCCCCC(=O)N[C@H](CCCNC(=N)N)C(=O)N[C@@H](CCCNC(=N)N)C(=O)N[C@@H](CCCNC(=N)N)C(=O)N1CCC[C@H]1C(=O)O [Peptide C10] (Decanoyl-[dR]RRP-OH)
(II) C[C@H](N)C(=O)N[C@@H](C)C(=O)N[C@@H](C)C(=O)N[C@@H](C)C(=O)N[C@H](CCCNC(=N)N)C(=O)N[C@@H](CCCNC(=N)N)C(=O)N[C@@H](CCCNC(=N)N)C(=O)N1CCC[C@H]1C(=O)O [Peptide A4] (H-AAAA[dR]RRP-OH)
Ask: Larger number for MIC, MRSA 43300: I , or II ? Bench note: the answer is the label of the chosen record.
Result: II
